- protocol details: activity coefficient (dimensionless); of the first substance listed, at infinite dilution; xn = mol fraction of the nth substance listed
- study conditions: 303.15 K; 101 kPa; Liquid; Chromatography; x1 = 0
assay metric: activity coefficient

CCCC(=O)OCC [ethyl butanoate] + O
1090

(a) CCCOC(C)=O [propyl ethanoate] + O
(b) CCOC(C)=O [ethyl acetate] + O
Hey, which is lower on measured activity coefficient, a or b ? Write down the label of the entry you select.
b
(b: 73.6, a: 281)

----------
- protocol details: activity coefficient (dimensionless); of the first substance listed, at infinite dilution; xn = mol fraction of the nth substance listed
- study conditions: 313.15 K; 101 kPa; Liquid; Chromatography; x1 = 0
assay metric: activity coefficient

// worked examples, activity coefficient included
CCOC(=O)CC [ethyl propanoate] + O
312
CCCCOC(C)=O [butyl ethanoate] + O
1140

(A) CCCOC(C)=O [propyl ethanoate] + O
(B) CCCC(=O)OCC [ethyl butanoate] + O
(C) CCOC(C)=O [ethyl acetate] + O
Number of compounds to sort: 3. Sort criterion: activity coefficient, ascending. A ranking is expressed here by listing the labels in the requested order.
C, A, B
(C: 80.1, A: 302, B: 1150)

Entry source: the NIST ThermoML archive (doi:10.1016/j.fluid.2014.05.023)
